Molecular target: human cGAS (residues 161-522) (Homo sapiens, UniProt Q8N884)
Construct: human cGAS (residues 161-522)
Sequence (Q8N884 161-522): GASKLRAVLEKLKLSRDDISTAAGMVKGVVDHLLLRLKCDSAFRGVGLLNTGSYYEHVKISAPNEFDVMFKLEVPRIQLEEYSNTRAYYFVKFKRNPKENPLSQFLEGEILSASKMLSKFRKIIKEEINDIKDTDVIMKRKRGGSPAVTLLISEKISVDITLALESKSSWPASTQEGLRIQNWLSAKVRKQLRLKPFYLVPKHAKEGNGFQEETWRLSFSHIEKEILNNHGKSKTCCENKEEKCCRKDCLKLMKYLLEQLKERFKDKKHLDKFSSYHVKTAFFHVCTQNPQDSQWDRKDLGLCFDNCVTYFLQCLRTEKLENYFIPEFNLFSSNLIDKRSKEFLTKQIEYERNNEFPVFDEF
Assay: cGAS Activity Assay—Malachite Green
Conditions: recombinant purified human cGAS 25 nM; 80 μM ATP, 80 μM GTP, 100 nM ISD; 4 hour at RT; phosphate detection by Malachite Green
test readout: pIC50
// pIC50 is dimensionless: -log10 of concentration (M)

COC(=O)c1cccc(NC(=O)/C(C#N)=C(\O)c2cnoc2C)c1 [Example 25] :: 5.82

The recorded pIC50 for CCCNS(=O)(=O)c1ccc(NC(=O)/C(C#N)=C(\O)c2cnoc2C)cc1 [Example 48] is 7.00

The recorded pIC50 for Cc1oncc1/C(O)=C(\C#N)C(=O)Nc1ncc(C(=O)N(C)Cc2ccccc2)c(CCc2ccccc2)n1 [Example 133] is 5.88

The recorded pIC50 for Cc1oncc1/C(O)=C(\C#N)C(=O)Nc1ncc(C(=O)Nc2ccccc2)cn1 [Example 105] is 6.82

The recorded pIC50 for Cc1oncc1/C(O)=C(\C#N)C(=O)Nc1nccc(-c2ccccc2)n1 [Example 68] is 6.68

The recorded pIC50 for Cc1oncc1/C(O)=C(\C#N)C(=O)Nc1ncc([S+]([O-])c2ccccc2)cn1 (centres unmarked) [Example 112] is 7.70

The recorded pIC50 for Cc1oncc1/C(O)=C(\C#N)C(=O)Nc1ncc(S(C)(=O)=O)c(-c2cccc(F)c2)n1 [Example 137] is 7.22

The recorded pIC50 for Cc1oncc1/C(O)=C(\C#N)C(=O)Nc1ccc([S+]([O-])c2ccccc2)cc1 (centres unmarked) [Example 34] is 6.72

The recorded pIC50 for COc1ccc(NC(=O)/C(C#N)=C(\O)c2cnoc2C)cc1C [Example 31] is 5.89

The recorded pIC50 for Cc1oncc1/C(O)=C(\C#N)C(=O)Nc1ncc(CCc2ccccc2)c(C(F)(F)F)n1 [Example 131] is 5.66

The recorded pIC50 for CC(=O)c1ccc(NC(=O)/C(C#N)=C(\O)c2cnoc2C)cc1 [Example 2] is 6.29

The recorded pIC50 for Cc1oncc1/C(O)=C(\C#N)C(=O)Nc1ccc(C(=O)N(C)CC2CCCCC2)c(Cl)c1 [Example 77] is 5.60

The recorded pIC50 for Cc1oncc1/C(O)=C(\C#N)C(=O)Nc1ccc(C(F)(F)F)cc1 [Example 4] is 6.02

The recorded pIC50 for Cc1oncc1/C(O)=C(\C#N)C(=O)Nc1cccc(C(=O)O)c1 [Example 144] is 6.48

The recorded pIC50 for COc1ccc(NC(=O)/C(C#N)=C(\O)c2cnoc2C)cc1 [Example 17] is 6.19

The recorded pIC50 for Cc1oncc1/C(O)=C(\C#N)C(=O)Nc1ccc(S(=O)(=O)c2cccnc2)cc1 [Example 123] is 6.68

The recorded pIC50 for Cc1oncc1/C(O)=C(\C#N)C(=O)Nc1ccccc1C(F)(F)F [Example 9] is 5.14

Sourced from patent US20230242494A1
